assay: Plasma clearance in rat was determined; format: ADME, organism-based
attribute-measured: clearance (mL/min/kg)
Give just the numeric value; mL/min/kg need not be written.

Ask: Which clearance value belongs to "COc1ccc([C@H](CC(=O)O)N2CCN(CCCc3ccc4c(n3)NCCC4)C2=O)cn1" ?
Result: 47

###

test: Bioavailability of compound was determined in rhesus monkey; format: ADME, organism-based, Macaca mulatta; conditions: in vivo
attribute-measured: bioavailability (%)
Output spec: scalar in %, unitless text.

Ask: Look up bioavailability: "COc1ccc([C@H](CC(=O)O)N2CCN(CCCc3ccc4c(n3)NCCC4)C2=O)cn1"
Result: 74

###

logP reference
assay: Partition coefficient (logP); assay type: physicochemical; conditions: octanol/water
# output: bare number, no unit

// worked examples, logP included
structure | attribute-measured | result-value
O=C(O)C[C@@H](c1cccnc1)N1CCN(CCCc2ccc3c(n2)NCCC3)C1=O | logP | -0.55
COc1ccc([C@H](CC(=O)O)N2CCN(CCCc3ccc4c(n3)NCCC4)C2=O)cn1 | logP | 0.21
O=C(O)C[C@@H](c1ccc2c(c1)OCC2)N1CCN(CCCc2ccc3c(n2)NCCC3)C1=O | logP | 0.8

Next:
Ask: Need logP, item "COc1ccc([C@H](CC(=O)O)N2CCN(CCCc3ccc4c(n3)NCCC4)C2=O)cc1F"
Result: 0.82

###

Reported bioavailability values for the following molecules.
assay: Bioavailability in dog; format: ADME, organism-based, Canis lupus familiaris; settings: in vivo
Write down the numeric answer in % and omit the unit.

Here are 3 molecules together with their reported answers.
structure | result-value
O=C(O)C[C@@H](c1ccc2c(c1)OCC2)N1CCN(CCCc2ccc3c(n2)NCCC3)C1=O | 75
COc1ccc([C@H](CC(=O)O)N2CCN(CCCc3ccc4c(n3)NCCC4)C2=O)cn1 | 64
O=C(O)C[C@@H](c1cccnc1)N1CCN(CCCc2ccc3c(n2)NCCC3)C1=O | 10

Could you now look at the following molecule, please?
Ask: Report bioavailability for "COc1ccc([C@H](CC(=O)O)N2CCN(CCCc3ccc4c(n3)NCCC4)C2=O)cc1F" please.
Result: 94

###

test: Percent binding of compound towards human plasma protein was determined; type: ADME, cell-free
Plasma protein binding: recorded values
Answer by giving the amount and then stating its unit.

The examples below pair each entry with its known result.
structure | result-value
COc1ccc([C@H](CC(=O)O)N2CCN(CCCc3ccc4c(n3)NCCC4)C2=O)cn1 | 88%
O=C(O)C[C@@H](c1ccc2c(c1)OCC2)N1CCN(CCCc2ccc3c(n2)NCCC3)C1=O | 98%
COc1ccc([C@H](CC(=O)O)N2CCN(CCCc3ccc4c(n3)NCCC4)C2=O)cc1F | 95%

// switching to the query molecule
Ask: Consider the molecule "O=C(O)C[C@@H](c1cccnc1)N1CCN(CCCc2ccc3c(n2)NCCC3)C1=O" and give its measured Plasma protein binding.
Result: 61%

###

assay: Plasma clearance in dog was determined; type: ADME, organism-based, Canis lupus familiaris
attribute-measured: clearance (mL/min/kg)
State the answer as a number, implicitly in mL/min/kg.

Recorded clearance, per entry:
structure | result-value
O=C(O)C[C@@H](c1cccnc1)N1CCN(CCCc2ccc3c(n2)NCCC3)C1=O | 70
COc1ccc([C@H](CC(=O)O)N2CCN(CCCc3ccc4c(n3)NCCC4)C2=O)cc1F | 5.1
COc1ccc([C@H](CC(=O)O)N2CCN(CCCc3ccc4c(n3)NCCC4)C2=O)cn1 | 6.4

Kindly consider the entry below.
Ask: Reported clearance, compound "O=C(O)C[C@@H](c1ccc2c(c1)OCC2)N1CCN(CCCc2ccc3c(n2)NCCC3)C1=O" : ____
Result: 4.1
